The measured values listed here are drawn from ChEMBL document CHEMBL1135102.

experiment.summary: Kinetic parameter Km was determined
Format: ADME
Listing of recorded Km by entry.
State just the number; it will be interpreted in µM.

**Query** Let me know recorded Km for Nc1ccn([C@H]2C[C@H](O)[C@@H](COP(=O)(O)OP(=O)(O)OP(=O)(O)O)O2)c(=O)n1 [DEOXYCYTIDINE TRIPHOSPHATE] , thanks.
**Result** 25.6

**Query** Determine from records and report Km for Nc1ncnc2c1ncn2[C@H]1C[C@H](O)[C@@H](COP(=O)(O)OP(=O)(O)OP(=O)(O)O)O1
**Result** 22

**Query** Dear colleague, please send me the reported Km for Nc1nc2c(ncn2[C@H]2C[C@H](O)[C@@H](COP(=O)(O)OP(=O)(O)OP(=O)(O)O)O2)c(=O)[nH]1 [DEOXYGUANOSINE TRIPHOSPHATE] when you can.
**Result** 62
